- procedureDetails: qHTS assay to identify small molecule agonists of the hypoxia (HIF-1) signaling pathway - cell viability counter screen (AID 1224844); note: nearly all actives have a fitted effect of over 50% in size
- measurementContext: HRE-bla ME-180 viability, CellTiter-Glo luminescence, 17 h; series mostly up to 76.8 µM
Records with an inconclusive call do not appear. Calls of active or inactive are those of the source. Calls come from the whole dose curve.
The categories you may choose from are active, inactive

query: Kindly provide the recorded test outcome for the following molecule: CC(C)(C)c1ccc(C(O)CCCN2CCC(C(O)(c3ccccc3)c3ccccc3)CC2)cc1 (configuration not stated)
result: active

query: Would you kindly repeat that for CN(C)Cc1ccccc1O ?
result: inactive

query: Next molecule: Cc1cccc(C(=O)O)c1O
result: inactive

query: Then CCN(CCN)c1cccc(C)c1 ?
result: inactive

query: Similarly, CCO[Si](OCC)(OCC)OCC ?
result: inactive

query: And then O=C1CCCCCCCCCCCCCCCO1 , what is it?
result: inactive

###

- procedureDetails: qHTS assay to identify small molecule agonists of the vitamin D receptor (VDR) signaling pathway - cell viability counter screen (AID 743224); note: nearly all actives have a fitted effect of over 50% in size
- measurementContext: VDR-bla HEK293T viability, CellTiter-Glo luminescence, 16 h; series mostly up to 62.6 µM
- Source text: U.S. Tox21 Program National Center for Advancing Translational Sciences [NCATS] NIH Chemical Genomics Center [NCGC] U.S. Environmental Protection Agency [EPA] National Institutes of Environmental Health Sciences [NIEHS] National Toxicology Program [NTP] U.S. Food and Drug Administration [FDA] Tox21 Assay Overview: The vitamin D receptor (VDR), a member of nuclear hormone receptor superfamily, plays a critical role in calcium homeostasis and bone metabolism. […]
Results filed as inconclusive are left out. Calls of active or inactive are those of the source. Calls come from the whole dose curve; as a rule, active = well fitted cell-killing curve with a large enough effect in the repeat runs; inconclusive = weak or mixed curves, or effect the other way; inactive = no such curve, though single readings can be large or run the other way.
Give your call using only these classes: 1 = active, 0 = inactive

Here are 5 molecules together with their reported answers.
Cc1cc(C(C)(C)C)cc(C)c1CC1=NCCN1 | 0
CC1=CCC(=C(C)C)CC1 | 0
CCCc1ccc(OCC(=O)N2CCN(C(=O)COc3ccc(CCC)cc3OC)CC2)c(OC)c1 | 0
Nc1nc(N)nc(-c2cc(Cl)ccc2Cl)n1 | 0
C=Cc1ccccc1C=C | 0

query: # outcome recorded in this test, key = CC(C)(C)c1ccc(C(O)CCCN2CCC(C(O)(c3ccccc3)c3ccccc3)CC2)cc1 (stereo unspecified)
result: 1

###

- procedureDetails: qHTS assay to identify small molecule agonists of the estrogen related receptor (ERR) signaling pathway from Tox21 library (AID 1224849); note: % is set by controls: 0 for no effect and ±100 for the full control effect; nearly all actives have a fitted effect of over 15% in size
- measurementContext: ERR reporter cell line, ONE-Glo luciferase, 18 h; at 42.5 µM (top of the series)
Activity calls are given as the source filed them. Calls come from the whole dose curve.
measuredAttribute: activity change, positive = activation

Here are 6 molecules together with their reported answers.
CCN(CC)C(=O)c1cc(S(=O)(=O)Cc2ccccc2)c(N2CCC(c3ccccc3)CC2)cc1N(CC)CCN(C)C | -79.2% (inactive)
C=CC(=O)Nc1cc2c(Nc3ccc(F)c(Cl)c3)ncnc2cc1OCCCN1CCOCC1 | -63.1% (inactive)
CC(C)=CCNc1ncnc2c1ncn2[C@@H]1O[C@H](CO)[C@@H](O)[C@H]1O | -51% (inactive)
COc1ccc2c(c1)c(CC(=O)OC/C=C(\C)CC/C=C(\C)CCC=C(C)C)c(C)n2C(=O)c1ccc(Cl)cc1 | -0.248% (inactive)
Cc1cc(C(C)(C)C)cc(C)c1CC1=NCCN1 | -3.5% (inactive)
CCOC(=O)NNc1ccc(N(CC)CC(C)O)nn1 (centres undefined) | 0.457% (inactive)

query: GET /values?readout=activity change, positive = activation&item= CCCc1ccc(OCC(=O)N2CCN(C(=O)COc3ccc(CCC)cc3OC)CC2)c(OC)c1
result: -21.5% (inactive)

query: Likewise for CCO[C@@H]1O[C@H](C(COCc2ccccc2)OCc2ccccc2)[C@H](OCc2ccccc2)[C@H]1O (some centres undefined) ?
result: -48% (inactive)

query: Entry C#C[C@]1(O)CC[C@H]2[C@@H]3[C@H](C)CC4=C(CCC(=O)C4)[C@H]3CC[C@@]21C please
result: -32.4% (inactive)

###

- testedOn: Cytochrome P450 2D6 (Homo sapiens) (UniProt P10635)
- Sequence (P10635 whole entry, looked up): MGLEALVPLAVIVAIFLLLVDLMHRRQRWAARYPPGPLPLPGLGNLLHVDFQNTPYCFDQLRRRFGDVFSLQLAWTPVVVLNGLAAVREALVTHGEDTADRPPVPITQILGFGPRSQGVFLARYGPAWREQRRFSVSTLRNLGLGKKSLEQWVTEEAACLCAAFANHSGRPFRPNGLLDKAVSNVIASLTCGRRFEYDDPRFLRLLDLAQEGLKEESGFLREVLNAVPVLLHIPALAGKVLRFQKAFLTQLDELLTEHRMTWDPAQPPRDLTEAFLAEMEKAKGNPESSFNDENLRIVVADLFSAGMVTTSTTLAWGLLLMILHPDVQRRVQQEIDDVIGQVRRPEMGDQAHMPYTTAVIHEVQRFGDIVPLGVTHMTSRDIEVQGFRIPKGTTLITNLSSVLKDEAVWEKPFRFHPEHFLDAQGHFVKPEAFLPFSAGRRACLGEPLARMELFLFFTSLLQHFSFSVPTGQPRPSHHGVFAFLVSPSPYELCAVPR
- procedureDetails: Cytochrome P450 Family 2 Subfamily D Member 6 (CYP2D6) small molecule antagonists: luciferase reporter qHTS assay (AID 1671196); note: nearly all actives have a fitted effect of over 50% in size
- measurementContext: P450-Glo CYP2D6 enzyme assay, luciferin luminescence, 1 h; series mostly up to 115 µM
Results filed as inconclusive are left out. The source made the active and inactive calls. Calls come from the whole dose curve; as a rule, active = well fitted inhibition curve with a large enough effect in the repeat runs; inconclusive = weak or mixed curves; inactive = no such curve, though single readings can be large or run the other way.
Reply using exactly one outcome from active, inactive

Look over these answered cases.
CC(C)=CCNc1ncnc2c1ncn2[C@@H]1O[C@H](CO)[C@@H](O)[C@H]1O | inactive
OC12N=C(c3ccccc3)SC1Cc1cc(Cl)ccc12 (configuration not stated) | active
CC(C)(C)C1CCC(=O)CC1 | inactive
O=C(Oc1ccccc1)Oc1ccccc1 | inactive
CCC(CC)C(C)CCOC(C)=O (configuration not stated) | inactive
Cc1ccc(C)cc1 | inactive
CCCCCCCCCCCC(=O)OCC(C)OC(=O)CCCCC(=O)O (configuration not stated) | inactive
CC[N+](CC)(CC)CCOc1ccc(/C=C/c2ccccc2)cc1 | active

query: Hey, what did the test say about COc1ccc2cc1Oc1ccc(cc1)C[C@H]1c3c(cc4c(c3Oc3cc5c(cc3OC)CCN(C)[C@@H]5C2)OCO4)CCN1C ?
result: active

query: And then CCC(=O)C(=O)CC , what is it?
result: inactive

query: Same read-out for CN(C)C(=O)COC(=O)Cc1ccc(OC(=O)c2ccc(N=C(N)N)cc2)cc1 ?
result: inactive

query: Item: C=C(C)c1cccc(C(=C)C)c1
result: inactive

###

- procedureDetails: qHTS assay for small molecule activators of the heat shock response signaling pathway - cell viability counter screen (AID 743209); note: nearly all actives have a fitted effect of over 50% in size
- measurementContext: HSE-bla HeLa viability, CellTiter-Glo luminescence, 5 h; series mostly up to 62.6 µM
Inconclusive results are not listed. Active and inactive are the calls of the source. Calls come from the whole dose curve; as a rule, active = well fitted cell-killing curve with a large enough effect in the repeat runs; inconclusive = weak or mixed curves, or effect the other way; inactive = no such curve, though single readings can be large or run the other way.
Hello, when you answer, please use one of the following outcomes: Y = active, N = inactive

C#CC1(O)CC[C@H]2[C@@H]3CCC4=CCCC[C@@H]4[C@H]3CC[C@@]21C (stereo not given in full) | Y
CC(CCc1ccccc1)NCC(O)c1ccc(O)c(C(N)=O)c1 (stereo not given) | N

query: Each compound tested received a call. Report the one for O=c1oc2cc(O)ccc2c2oc3cc(O)ccc3c12 .
result: N

query: What do you have for CCC(CC)C(C)CCOC(C)=O (stereo not given) ?
result: N

###

- procedureDetails: qHTS assay to identify small molecule antagonists of the estrogen receptor alpha (ER-alpha) signaling pathway using the BG1 cell line in the presence of 0.1 nM 17-beta-estradiol - cell viability counter screen (AID 1259241); note: % is set by controls: 0 for no effect and ±100 for the full control effect; nearly all actives have a fitted effect of over 40% in size
- measurementContext: VM7Luc4E2 (BG1) viability, CellTiter-Fluor protease, 22 h, 0.1 nM estradiol agonist added; series mostly up to 92.4 µM
- Source text: National Center for Advancing Translational Sciences [NCATS] NIH Chemical Genomics Center [NCGC] U.S. Environmental Protection Agency [EPA] National Institutes of Environmental Health Sciences [NIEHS] National Toxicology Program [NTP] U.S. Food and Drug Administration [FDA] Estrogen receptor (ER), a member of the nuclear hormone receptor plays an important role in development, metabolic homeostasis and reproduction. […]
Results filed as inconclusive are left out. Activity calls are given as the source filed them. The call rests on the fitted dose curve; in most records, active means well fitted cell-killing curve with a large enough effect in the repeat runs; inconclusive means weak or mixed curves, or effect the other way; inactive means flat fitted curve, though single readings scatter.
measuredAttribute: outcome

Sample records with outcome:
OC1CCC(C2CCCCC2)CC1 (stereo unspecified) | inactive
Cc1ccc(-c2ccccc2)cc1 | inactive
CC[N+](CC)(CC)CCOc1ccc(/C=C/c2ccccc2)cc1 | inactive
C#C[C@]1(OC(C)=O)CC[C@H]2[C@@H]3CCC4=C/C(=N/O)CC[C@@H]4[C@H]3CC[C@@]21CC | inactive
Nc1ccc(C(=O)O)c(O)c1 | inactive

We now examine a further compound.
query: Using the record for Cc1c(F)c(N2CCNC(C)C2)cc2c1c(=O)c(C(=O)O)cn2C1CC1 (stereo unspecified) , report its outcome.
result: inactive

###

- procedureDetails: Human pregnane X receptor (PXR) small molecule agonists, qHTS cell viability counter screen (AID 1346977); note: nearly all actives have a fitted effect of over 50% in size
- measurementContext: PXR-Luc HepG2 viability, CellTiter-Fluor, 24 h; series mostly up to 92.4 µM
Records with an inconclusive call do not appear. Active and inactive are the calls of the source. The call rests on the fitted dose curve; in most records, active means well fitted cell-killing curve with a large enough effect in the repeat runs; inconclusive means weak or mixed curves, or effect the other way; inactive means flat fitted curve, though single readings scatter.
Answer with one of the outcomes active, inactive

Recorded results for 3 compounds are shown here.
CCCCCC/C=C\CCCCCCCC(=O)O | inactive
Cc1cccc(C)c1NC(=O)c1ccc(N)cc1 | inactive
C#C[C@]1(O)CC[C@H]2[C@@H]3[C@H](C)CC4=C(CCC(=O)C4)[C@H]3CC[C@@]21C | inactive

query: Recorded test call requested for O=C(O)CCN(C1(C(=O)NO)CCCC1)S(=O)(=O)c1ccc(Oc2ccc(F)cc2)cc1
result: inactive

query: Lookup CCN(CC)c1ccc2c(-c3ccc(S(=O)(=O)O)cc3S(=O)(=O)[O-])c3ccc(=[N+](CC)CC)cc-3oc2c1
result: active
